Data provenance is patent US20260283959A1.

Assay: Pharmacokinetic study in rats, plasma synephrine by LC-MS/MS
Type: in vivo, rat
Conditions: iv; rat plasma, injection group (tail vein)
Text: SPF-grade male SD rats, weighing 180-220 g, were housed under identical experimental conditions: temperature (22±1)° C., relative humidity (55±5) %, and a 12-hour light/dark cycle. They had free access to food and water and underwent a one-week acclimatization period before the experiment. […]
Reported endpoint: Cmax (ng/mL)
// return numeric value only (unit: ng/mL, not printed)

Req: Sample CNCC(O)c1ccc(O)cc1 (stereo not drawn) [SYN, Synephrine] — what was its Cmax?
Resp: 1030

* * *

experiment: Solubility of synephrine API in different solvents by HPLC; format: physicochemical; settings: organic solvent or mixture; solvent: Acetonitrile
Reported endpoint: solubility (mg/mL)
// return numeric value only (unit: mg/mL, not printed)

Req: Sample CNCC(O)c1ccc(O)cc1 (stereo not drawn) [SYN, Synephrine] — what was its solubility?
Resp: 10.6
